Cited source for all entries: the RNAGym collection of RNA variant scans (doi:10.7554/elife.80360)

B1: HDV Ribozyme (parent)
chain: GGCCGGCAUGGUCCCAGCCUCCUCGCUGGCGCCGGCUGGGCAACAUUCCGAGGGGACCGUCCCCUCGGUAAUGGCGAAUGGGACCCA

variants of: B1; assay: self-cleavage, relative activity (ratio to wild type); higher = more cleavage; co-transcriptional
READOUT KIND: self-cleavage
Simply state the number, no unit and no words.

Find the recorded self-cleavage belonging to C4G C85G and report it.
0.332
